Recorded Kd values for a group of binders are listed next.
testedSystem: T1, human HER3/ErbB3 extracellular domain (human, UniProt P21860 20-643)
T1 construct: extracellular domain; the range 1-643 of M34309 is printed only for the immunogen; also called Human HER3 ECD; recombinant human HER3
T1 sequence (P21860 20-643): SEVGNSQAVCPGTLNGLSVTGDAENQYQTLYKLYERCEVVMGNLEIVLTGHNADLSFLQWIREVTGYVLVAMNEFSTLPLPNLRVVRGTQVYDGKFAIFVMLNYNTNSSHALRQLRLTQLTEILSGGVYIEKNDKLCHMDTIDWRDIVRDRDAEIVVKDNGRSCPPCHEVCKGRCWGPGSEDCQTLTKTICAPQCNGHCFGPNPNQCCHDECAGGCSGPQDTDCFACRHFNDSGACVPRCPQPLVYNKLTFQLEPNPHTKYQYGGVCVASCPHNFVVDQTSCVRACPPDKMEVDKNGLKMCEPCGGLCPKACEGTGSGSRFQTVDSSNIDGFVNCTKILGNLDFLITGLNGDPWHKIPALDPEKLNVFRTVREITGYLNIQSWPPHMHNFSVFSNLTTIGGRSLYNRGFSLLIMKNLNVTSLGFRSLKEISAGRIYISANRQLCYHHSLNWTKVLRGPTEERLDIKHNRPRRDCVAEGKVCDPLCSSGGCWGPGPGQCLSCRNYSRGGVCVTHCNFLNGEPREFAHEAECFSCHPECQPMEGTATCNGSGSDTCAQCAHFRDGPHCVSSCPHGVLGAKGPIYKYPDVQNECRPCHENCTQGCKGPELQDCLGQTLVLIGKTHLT
protocol: SPR, Biacore T-100; antibody captured by anti-rabbit IgG, recombinant human HER3 as analyte
Dear colleague, please return just the value in nM, with no unit written.

[
  {
    "binder": "Rab1210 (antibody, V domains shown, also called Rab1210 monoclonal antibody) VH: QEQLEESGGGLVQPEGSLTLTCTASGFSFSSSYWICWVRQAPGKGLELIGYIWSGNGATYYASWAKGRFTISKTSSTTVTLQMTSVTATDTATYFCARNYDASGYGIFHLWGPGTLVTVSS VL: AVVMTQTPASVSAAVGGTVTINCQASQSIVSSYLSWYQQKTGQPPKLLIYSASKLASGVPPRFSGSGSGTQFTLTISGVQCDDAATYYCLYGVDSSNIDNAFGGGTEVVVK",
    "Kd (nM)": 1
  },
  {
    "binder": "Rab46 (antibody, V domains shown, also called Rab46 monoclonal antibody) VH: EEQLVESGGGLVQPEGSLTLTCTASGFSFSASYYIYWVRQAPGKGLEGIAYITGDDDKRTYYANWAKGRFTISKTSTTVTLQMTSLTAADTATYFCTRNLPDELWGPGTLVTVSS VL: QAVVTQTPSSVSAAVGGTVTISCQSSESVYSYKNLAWYQQKPGQPPRLLIWQASRLSSGVSSRFSGSGSGTQFTLTISGVQCDDAATYYCQGTYYSSAWDFVFGGGTEVMVE",
    "Kd (nM)": 7.3
  },
  {
    "binder": "Rab774 (antibody, V domains shown, also called Rab774 monoclonal antibody) VH: QSVEESGGRLVTPGTPLTLTCTVSGIDLSTYAMTWVRRAPGKGLEWLGIINRSSKTYLTDWARGRFTISKTSTTVDLKISSPTTEDTATYFCGRVMSPYSVAGGDLWGPGTLVTVSS VL: QPVLTQSPSASAALGASAKLTCILSSDLSDYTIDWYKHQQGEAPRYLMQLRSDGSYTKGTGVPDRFSGSSSGADRYLVISSVQADDEADYYCGLPYSVEYVFGGGTQLTVT",
    "Kd (nM)": 0.16
  }
]

// next item, Kd requested
Lookup: Quick one: Kd for Rab189 (antibody, V domains shown, also called Rab189 monoclonal antibody) VH: QESLEESGGDLVKPEGTLTLTCKASGIGFGYYYYICWVRQAPGKGLEWIACIYTGISDSTYYATWAKGRFAISKTSSTTVTLQMTSLTAADTATYFCARSDPYYTTTYTNTYPTYWNLWGPGTLVTVSS VL: CAFELTQTPSSVEAAVGGTVTIKCQASQSINNYLAWYQQKTGQPPKLLIYRASTLESGVPSRFKGSGSGTQFTLTISDLECADAATYYCQSYYYSSSNNYYNAFGGGTEVVVK ?
Found: 3.6
